B1: unnamed (parent)
chain 1: ECPDRWRAEIDLGLPPGVQVGDLLRNEQTMGSLRQVYLLAVQANSITDHLKRFDAVRVPESCRGVVEAQVAKLEAVRSVIWNTMISLAVSGIEMDENGLKALLDKQAGDSLALMEMEKVATALKMD
chain 2: MQKVSLRVTPRLVLEVNRHNAICVATNVPEFYNARGDLNIRDLRAHVKARMISSQFCGYVLVSLLDSEDQVDHLNIFPHVFSERMILYKPNNVNLMEMCALLSMIENAKSPSIGLCREVLGRLTLLHSKCNNLDSLFLYNGARTLLSTLVKYHDLEEGAATPGPWNEGLSLFKLHKELKRAPSEARDLMQSLFLTSGKMGCLARSPKDYCADLNKEEDANSGFTFNLFYQDSLLTKHFQCQTVLQTLRRKCLGSDTVSKIIP

variants of: B1; assay: BLI; conditions: with partner chain of the complex shown; 10 μg ml−1 His-tagged BBRF2Δ; BSRF1Δ(N59K) at 500, 250, 125, 62.5, 31.3 nM
pKd: −log10 of the molar value.
observedProperty: pKd

sequencerecord="chain 1 ECPDRWRAEIDLGLPPGVQVGDLLRKEQTMGSLRQVYLLAVQANSITDHLKRFDAVRVPESCRGVVEAQVAKLEAVRSVIWNTMISLAVSGIEMDENGLKALLDKQAGDSLALMEMEKVATALKMD [chain 1 N26K]" observed=7.22
